Values were extracted from patent US20260028343A1.

target: IRAK3 (Homo sapiens); construct: IRAK Endogenous HTRF Degradation Assay; endogenous in cells; assay: IRAK Endogenous HTRF Degradation Assay; type: cell-based; settings: endogenous IRAK3, overnight incubation; concentration at which 50% degradation is achieved
readout: DC50

compound | result
Cc1cccc(-c2cnc(Nc3ccc(C4CCN(CCNC(=O)COc5ccc6c(c5)C(=O)N(C5CCC(=O)NC5=O)C6=O)CC4)cc3)c3nccn23)c1 (stereo not drawn) | > 10 µM
Cc1cccc(-c2cnc(Nc3ccc(N4CCN(CCNC(=O)COc5ccc6c(c5)C(=O)N(C5CCC(=O)NC5=O)C6=O)CC4)cc3)c3nccn23)c1 (stereo not drawn) | > 10 µM
Cc1cccc(-c2cnc(Nc3cnn(C4CCN(C5CCC6(CC5)CCN(C(=O)c5ccc7c(c5)CN(C5CCC(=O)NC5=O)C7=O)CC6)CC4)c3)c3nccn23)c1 (stereo not drawn) | 0.01 µM
Cc1cccc(-c2cnc(Nc3ccc(N4CCN(C(=O)CCOCCNC(=O)COc5cccc6c5C(=O)N(C5CCC(=O)NC5=O)C6=O)CC4)cc3)c3nccn23)c1 (stereo not drawn) | > 10 µM
Cc1cccc(-c2cnc(Nc3cccc(C4CCN(CCNC(=O)COc5ccc6c(c5)C(=O)N(C5CCC(=O)NC5=O)C6=O)CC4)c3)c3nccn23)c1 (stereo not drawn) | > 10 µM
Cc1cccc(-c2cnc(Nc3ccc(N4CCN(C(=O)CCOCCNC(=O)COc5ccc6c(c5)C(=O)N(C5CCC(=O)NC5=O)C6=O)CC4)cc3)c3nccn23)c1 (stereo not drawn) | > 10 µM

* * *

Reported values of pIC50 for individual entries
Biological target: IRAK3 (Homo sapiens, UniProt Q9Y616)
Construct: IRAK Endogenous HTRF Degradation Assay; endogenous in cells
Sequence (Q9Y616 1-596): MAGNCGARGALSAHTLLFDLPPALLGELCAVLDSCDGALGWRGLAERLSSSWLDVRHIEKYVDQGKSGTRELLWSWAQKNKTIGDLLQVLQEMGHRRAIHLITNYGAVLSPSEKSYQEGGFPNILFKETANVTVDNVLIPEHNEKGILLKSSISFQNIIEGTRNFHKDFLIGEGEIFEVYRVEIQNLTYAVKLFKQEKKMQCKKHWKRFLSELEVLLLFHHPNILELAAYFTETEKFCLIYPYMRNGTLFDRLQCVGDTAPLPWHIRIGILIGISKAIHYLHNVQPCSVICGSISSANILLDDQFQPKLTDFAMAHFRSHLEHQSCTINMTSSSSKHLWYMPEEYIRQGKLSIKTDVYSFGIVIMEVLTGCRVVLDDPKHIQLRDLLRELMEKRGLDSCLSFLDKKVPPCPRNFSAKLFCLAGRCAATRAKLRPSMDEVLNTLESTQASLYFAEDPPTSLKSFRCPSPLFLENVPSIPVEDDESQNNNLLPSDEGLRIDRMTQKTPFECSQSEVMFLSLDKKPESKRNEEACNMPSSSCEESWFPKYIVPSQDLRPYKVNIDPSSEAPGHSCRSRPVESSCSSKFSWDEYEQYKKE
Test: IRAK3 Biochemical Binding Assay (LanthaScreen Eu Kinase Binding)
Conditions: TR-FRET tracer displacement, 1 hour at room temperature
pIC50: −log10 of the molar value.

compound | readout_qualifier | pIC50
Cc1cccc(-c2cnc(Nc3ccc(N4CCN(C(=O)CCCNC(=O)COc5ccc6c(c5)C(=O)N(C5CCC(=O)NC5=O)C6=O)CC4)cc3)c3nccn23)c1 (stereo not shown) | = | 7.15
Cc1cccc(-c2cnc(Nc3cnn(C4CCN(CCNC(=O)COc5ccc6c(c5)C(=O)N(C5CCC(=O)NC5=O)C6=O)CC4)c3)c3nccn23)c1 (stereo not shown) | > | 9.30
Cc1cccc(-c2cnc(Nc3cccc(C4CCN(CCNC(=O)COc5ccc6c(c5)C(=O)N(C5CCC(=O)NC5=O)C6=O)CC4)c3)c3nccn23)c1 (stereo not shown) | = | 6.67
Cc1cccc(-c2cnc(Nc3ccc(N4CCN(C(=O)CCCNC(=O)COc5cccc6c5C(=O)N(C5CCC(=O)NC5=O)C6=O)CC4)cc3)c3nccn23)c1 (stereo not shown) | = | 7.52
Cc1cccc(-c2cnc(Nc3ccc(N4CCN(C(=O)CCOCCNC(=O)COc5ccc6c(c5)C(=O)N(C5CCC(=O)NC5=O)C6=O)CC4)cc3)c3nccn23)c1 (stereo not shown) | = | 7.08
Cc1cccc(-c2cnc(Nc3ccc(N4CCN(CCNC(=O)COc5ccc6c(c5)C(=O)N(C5CCC(=O)NC5=O)C6=O)CC4)cc3)c3nccn23)c1 (stereo not shown) | = | 7.48
Cc1cccc(-c2cnc(Nc3ccc(N4CCN(C(=O)CCOCCNC(=O)COc5cccc6c5C(=O)N(C5CCC(=O)NC5=O)C6=O)CC4)cc3)c3nccn23)c1 (stereo not shown) | = | 7.08
